test: Single dose study: plasma pharmacokinetics of eplerenone, open lactone ring form, spironolactone; conditions: male, human, plasma, po, 300 mg
METRIC: concentration at 0.5 h

# COMPOUND, REPORTED VALUE
rows = [
    ("COC(=O)C1CC2=CC(=O)CCC2(C)C23OC2CC2(C)C(CC[C@@]24CCC(=O)O4)C13 (stereo partly shown)", "1620 ng/mL"),
]

====

test: Single dose study: plasma pharmacokinetics of eplerenone, open lactone ring form, spironolactone; conditions: male, human, plasma, po, 50 mg

# MOLECULE, concentration at 3 h
records = [
    ("COC(=O)C1CC2=CC(=O)CCC2(C)C23OC2CC2(C)C(CC[C@@]24CCC(=O)O4)C13 (some centres unmarked) [eplerenone]", "592 ng/mL"),
    ("CC(=O)S[C@@H]1CC2=CC(=O)CC[C@]2(C)[C@H]2CC[C@@]3(C)[C@@H](CC[C@@]34CCC(=O)O4)[C@H]12 [spironolactone, Spironolactone, reference compound]", "14.3 ng/mL"),
]

Reference source: patent US6410054B1
